Tested on: HCT-15 colon
PROTOCOL DESCRIPTION: NCI-60 one-dose screen, 48 h (100 = growth as untreated, 0 = no growth, -100 = all killed)
EXPERIMENTAL PARAMETERS: 10 µM unless noted
The panel holds about 83,000 compounds, 20% with a hit somewhere; the sample as a whole holds those more often.
OBSERVATION TYPE: growth (%)
Numbers only, in %.

Known growth results, listed for orientation:
COMPOUND: COc1ccc(Cn2cc3c(c2-c2cc(OC)c(OC)c(OC)c2)CCCc2cnoc2-3)cc1N
growth, %: 26.8
//
COMPOUND: C#CCOc1ccc(C(Nc2ccc(Cl)cc2)c2nnnn2C2CCCCC2)cc1 (centres undefined)
growth, %: 80
//
COMPOUND: O=C(Nc1cc(F)cc2cccnc12)c1cnc(N2CCOCC2)cn1
growth, %: 32.4
//
COMPOUND: CCn1c2ccc(/C=N/OCCCN(C)C)cc2c2cc(/C=N/OCCCN(C)C)ccc21
growth, %: -13
//
COMPOUND: O=C(NCCCNc1cc(-c2cn(-c3ccccc3)nc2-c2cccc(O)c2)ccn1)Nc1ccc(F)cc1
growth, %: -11.7

Provide each entry's growth from the list below.
1. CS(=O)c1nccc(-c2c(-c3ccc(F)c(OCc4ccc(F)cc4)c3)nc3sccn23)n1 (centres undefined)
2. CCCCOc1ccc(S(=O)(=O)N2CCN(c3nccc(N4CCOCC4)n3)CC2)cc1
3. C=CCn1c(SCC(=O)Nc2cccc(C(=O)/C=C/c3ccc(C)cc3)c2)nc2ccccc2c1=O
4. Nc1n[nH]c2cccc(C#Cc3cccc(NC(=O)c4cccc(OC(F)(F)F)c4)c3)c12

Outgoing:
1. 59.4
2. 7.04
3. 62
4. 41.3
